The molecules listed here are annotated with their TGI.
Tested on: NCI-H23 lung
Measurement description: NCI tumour cell line growth inhibition, 48 h

1. COC(=O)CC(NC(=O)OCc1ccccc1)C(C(=O)OCc1ccccc1)C1(C)OCCO1 (stereo unspecified); > 100 µM
2. CC12CC(C/C1=N/O)C(C)(C)C2 (stereo unspecified); > 100 µM
3. CCCCCCOc1ccc(C(=N)N(CCCC)CCCC)c2ccccc12; 2.8 µM

Okay, now this molecule:
Per the records, this molecule ( O=C(c1ccco1)C1CC(c2ccc3ccccc3c2O)=NN1c1ccc([N+](=O)[O-])cc1[N+](=O)[O-] (stereo unspecified) ) has TGI equal to > 100 µM

----------
Tested on: RXF 393 renal
Measurement description: NCI tumour cell line growth inhibition, 48 h
Assay readout: TGI (µM)
The reply should be a number in µM, with the unit left off.

1) CC(=O)[CH-]C(=O)c1ccccc1.CC(=O)[CH-]C(=O)c1ccccc1.[CH2-]CCC.[CH2-]CCC.[Sn+4]; 0.784

Per the records, this compound ( CCCCCCOc1ccc(C(=N)N(CCCC)CCCC)c2ccccc12 ) has TGI equal to 2.74

Per the records, this compound ( CC(=O)OCCC(O[Si](c1ccccc1)(c1ccccc1)C(C)(C)C)C(C)(C)O (stereo unspecified) ) has TGI equal to 36.6

Per the records, this compound ( O=C(O)C1C(C(=O)O)C2(Cl)C(Cl)=C(Cl)C1(Cl)C2(Cl)Cl.[Cd] (stereo unspecified) ) has TGI equal to 30.5

----------
Test system: HOP-18 NSCLC
Measurement description: NCI tumour cell line growth inhibition, 48 h
Assay readout: TGI

Per the records, this molecule ( CC1(C)COC(c2c(-c3ccccc3)noc2CS(=O)c2ccccc2)=N1 (stereo unspecified) ) has TGI equal to 86.4 µM

Per the records, this molecule ( O=C1C(c2ccccc2)=C(c2ccccc2)[C@H](c2ccccc2)[C@]1(Cc1nnn(-c2ccc([N+](=O)[O-])cc2)c1N1CCOCC1)c1ccccc1 ) has TGI equal to > 37.5 µM

Per the records, this molecule ( COC(=O)C1(F)C(=O)NC(=O)NC1OC (stereo unspecified) ) has TGI equal to > 100 µM

Per the records, this molecule ( CC1(C)OC(COCCOCCCCCO)C(COCCOCCCCCO)O1 (stereo unspecified) ) has TGI equal to > 100 µM

Per the records, this molecule ( CC1=C(C(=O)CC(=O)C(=O)NC2C3CC4CC(C3)CC2C4)Sc2ccccc2N1 (stereo unspecified) ) has TGI equal to > 100 µM

Per the records, this molecule ( CC1(C)CC(=O)c2c(oc3cc(O)c(O)cc23)C1 ) has TGI equal to > 100 µM

Per the records, this molecule ( NC(=O)C(=O)n1ncc(Cl)c(Cl)c1=O ) has TGI equal to 35.1 µM

Per the records, this molecule ( c1ccc(OCCSCCCCCCCCCCSCCOc2ccccc2)cc1 ) has TGI equal to > 100 µM

Per the records, this molecule ( O=S1(=O)CCN(c2ccccc2CC(c2c[nH]c3ccccc23)c2c[nH]c3ccccc23)CC1 ) has TGI equal to 32.7 µM

Per the records, this molecule ( O=C(OCc1ccccc1C1CSCSC1)c1cc(C(=O)OCc2ccccc2C2CSCSC2)c(C(=O)OCc2ccccc2C2CSCSC2)cc1C(=O)OCc1ccccc1C1CSCSC1 ) has TGI equal to > 100 µM

Per the records, this molecule ( Nc1c(N=Nc2ccc(-c3ccc(N=Nc4c(O)ccc5cc(S(=O)(=O)O)cc(S(=O)(=O)O)c45)cc3)cc2)c(S(=O)(=O)O)cc2cc(S(=O)(=O)O)c(N=Nc3ccccc3)c(O)c12 ) has TGI equal to > 100 µM

----------
Tested on: UO-31 renal
Measurement description: NCI tumour cell line growth inhibition, 48 h
Assay readout: TGI

1. COc1ccc2[nH]c3c(=O)[nH]ncc3c2c1; > 100 µM
2. COc1ccc2[nH]c(-c3ccccc3)cc2c1; > 100 µM
3. Cn1cnc([N+](=O)[O-])c1Sc1nc(N)nc2nc[nH]c12; > 100 µM
4. CCN(CC)CCOc1ccc(/C=C2\CC3C4CC=C5C[C@@H](OC(C)=O)CC[C@]5(C)C4CC[C@]3(C)C2=O)cc1OC (stereo not given in full); 23.1 µM

Per the records, this molecule ( Cc1cc(=O)[nH]c(NNC(C#N)c2ccc([N+](=O)[O-])cc2)n1 (stereo not given) ) has TGI equal to > 100 µM

----------
Tested on: UACC-62 melanoma
Measurement description: NCI tumour cell line growth inhibition, 48 h; in the data active means GI50 below about 0.43 µM; inactive means the rest
In this exercise, the only acceptable responses are active, inactive

Past entries and their recorded results:
1) C=CC(=O)Nc1cccc(Nc2nc(Nc3ccc(OCCOC(F)F)cc3)ncc2F)c1; inactive
2) Nc1ncnc2c1c(-c1ccc(Oc3ccccc3)cc1)nn2C[C@@H]1SSC[C@@H]1O; active
3) CN(C)C/C=C/C(=O)Nc1ccc(C(=O)N2CCC[C@@H](Nc3ncc(Cl)c(-c4c[nH]c5ccccc45)n3)C2)cc1; active
4) Cc1cc(=O)oc2cc(OCCn3c(C)nn(-c4ccc(Cl)cc4)c3=O)ccc12; inactive
5) COc1cc2cc(Oc3ccc(NC(=O)c4cccc5c4OCCO5)cc3)c(C)nc2cc1OC; inactive

Problem: Field: outcome | Entry: C=CC1=CC(C)C[C@]1(O)C(=O)OC (stereo partly specified)
Result: inactive

Problem: Field: outcome | Entry: CCN(CC)CCOc1ccc(/C=C2\CC3C4CC=C5C[C@@H](OC(C)=O)CC[C@]5(C)C4CC[C@]3(C)C2=O)cc1OC (stereo partly specified)
Result: inactive

Problem: Field: outcome | Entry: C1=C2CNCC3=Cc4ccc5ccccc5c4OC23Oc2c1ccc1ccccc21
Result: inactive

Problem: Field: outcome | Entry: O=C(O)C1C(C(=O)O)C2(Cl)C(Cl)=C(Cl)C1(Cl)C2(Cl)Cl.[Cd] (stereo unspecified)
Result: inactive

Problem: Field: outcome | Entry: COc1ccccc1/C=C\C(=O)c1ccccc1
Result: inactive

Problem: Field: outcome | Entry: CN(C)C(=O)SC1=C(c2c(Cl)cccc2Cl)C(=O)c2ccccc21
Result: inactive

Problem: Field: outcome | Entry: CC[C@@]1(O)C(=O)OCc2c1cc1n(c2=O)Cc2cc3c(N)cccc3nc2-1
Result: active

Problem: Field: outcome | Entry: COc1ccc2cc(-c3c(-c4ccncc4)nc(-c4ccc(S(C)=O)cc4C)n3C)ccc2c1 (stereo unspecified)
Result: inactive

----------
Test system: UACC-257 melanoma
Measurement description: NCI tumour cell line growth inhibition, 48 h
The molecules listed here are annotated with their TGI.
The reply should be a number in µM, with the unit left off.

1. OC(c1cc(-c2ccccc2)nc2c1ccc1ccccc12)C1CCCCN1 (stereo not given); 3.41

Per the records, this molecule ( O=c1oc2ccc(F)cc2c(=O)n1-c1ccc(Br)cc1F ) has TGI equal to 7.37

Per the records, this molecule ( Cc1c(C(=O)OCc2ccccc2)[n+](=O)c2cc(F)c(F)cc2n1[O-] ) has TGI equal to 4

Per the records, this molecule ( COc1ccc(/C=C/C(=O)C(C)(C)Br)cc1 ) has TGI equal to 30.2

Per the records, this molecule ( CC(C)CCCC(C)[C@H]1CC[C@H]2N=C(Nc3ccccc3)CCC[C@]12C (stereo not given in full) ) has TGI equal to 4.85

Per the records, this molecule ( O=C(Cc1ccc(/C=C/C(=O)c2ncc[nH]2)cc1)Nc1ccc(C(F)(F)F)cc1 ) has TGI equal to 16.1

Per the records, this molecule ( CN(C)C/C=C/C(=O)Nc1ccc(C(=O)N2CCC[C@@H](Nc3ncc(Cl)c(-c4c[nH]c5ccccc45)n3)C2)cc1 ) has TGI equal to 1.32

Per the records, this molecule ( CC(=O)[CH-]C(=O)c1ccccc1.CC(=O)[CH-]C(=O)c1ccccc1.[CH2-]CCC.[CH2-]CCC.[Sn+4] ) has TGI equal to 1.69

Per the records, this molecule ( NC(=O)C(=O)n1ncc(Cl)c(Cl)c1=O ) has TGI equal to 58.4

Per the records, this molecule ( COc1ccc(CC2=NCCc3cc(OC)c(OC)cc32)cc1Br ) has TGI equal to 82.6

----------
System: CCRF-CEM leukemia
Measurement description: NCI tumour cell line growth inhibition, 48 h
Assay readout: TGI

The molecule CCCCCCOP(=O)(OCCCCCC)OC(C(=O)OC)C(F)(F)F (stereo not given) on CCRF-CEM leukemia: TGI was > 100 µM

The molecule O=C1CSC2(CC(/C=C/c3ccccc3Br)=NN2c2cccc(S(=O)(=O)O)c2)N1c1nc2ccccc2s1 (stereo not given) on CCRF-CEM leukemia: TGI was > 100 µM

The molecule Cc1cc2n([O-])cccc-2[n+](=O)c1 on CCRF-CEM leukemia: TGI was > 100 µM

The molecule Nc1ncnc2c1c(-c1ccc(Oc3ccccc3)cc1)nn2C[C@@H]1SSC[C@@H]1O on CCRF-CEM leukemia: TGI was > 59.7 µM

The molecule CC(=O)[CH-]C(=O)c1ccccc1.CC(=O)[CH-]C(=O)c1ccccc1.[CH2-]CCC.[CH2-]CCC.[Sn+4] on CCRF-CEM leukemia: TGI was 0.745 µM
